The measured values listed here are drawn from PubChem BioAssay AID588334.

- ASSAY_PROTOCOL: MITF-driven TRPM1 luciferase induction in melanoma cells – cell-based, SK-MEL-5, single point, primary screen (AID 588334);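 note: 0% = neutral control wells and 100% = parthenolide positive control wells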
- PARTICULARS: SK-MEL-5 TRPM1-promoter luciferase, 24 h; at 12.5 µM; hits give high values; % of positive control, neutral wells = 0
In all, about 300,000 compounds went through this assay and about 2,300 (0.77%) were called active. Only a selection was taken, and actives are over-represented in it overall.

MOLECULE	activation (%)
COc1cc(C(=O)CCc2ccc3c(c2)OCO3)cc(OC)c1OC	-4.27
CN(c1ccc(C(=O)NCCC2=CCCCC2)cc1)S(C)(=O)=O	45.6
COc1ccc(S(=O)(=O)Nc2cccc3c2O[C@H](CN(C)S(=O)(=O)c2ccc(OC)cc2)[C@@H](C)CN([C@H](C)CO)C3=O)cc1	0.473
CC1CCCN(c2ccc(C(=O)NCCc3ccccc3)cn2)C1 (stereo not drawn)	126
C[C@H](O)[C@@H]1C(=O)N2CCc3ccc(N4CCOCC4)cc3[C@@H]2C[C@@H]1N(C)C(=O)C(C)(C)C	3.72
CCCOc1ccc(C(=O)NCCc2ccccc2)cc1	-2.06
O=C(NCCC1=CCCCC1)c1ccc(-n2cncn2)cc1	83.6
COc1ccc(C2=Nn3c(nnc3-c3ccccc3OC)SC2)cc1OC1CCCC1	-62.2
